Here the recorded melting temperature is given for each entry.
Test system: HeLa Kyoto
measurement.description: melting temperature (median over replicates), in situ; higher = more thermally stable
conditions: cell cycle stage: G1/S
Just the number in °C, nothing appended.

seq_text="MEATTAGVGRLEEEALRRKERLKALREKTGRKDKEDGEPKTKHLREEEEEGEKHRELRLRNYVPEDEDLKKRRVPQAKPVAVEEKVKEQLEAAKPEPVIEEVDLANLAPRKPDWDLKRDVAKKLEKLKKRTQRAIAELIRERLKGQEDSLASAVDAATEQKTCDSD [CCDC12]" measurement_kind="melting temperature" test_value=53.7

Now for another entry.
Data request: Return reported melting temperature; argument: MADQPKPISPLKNLLAGGFGGVCLVFVGHPLDTVKVRLQTQPPSLPGQPPMYSGTFDCFRKTLFREGITGLYRGMAAPIIGVTPMFAVCFFGFGLGKKLQQKHPEDVLSYPQLFAAGMLSGVFTTGIMTPGERIKCLLQIQASSGESKYTGTLDCAKKLYQEFGIRGIYKGTVLTLMRDVPASGMYFMTYEWLKNIFTPEGKRVSELSAPRILVAGGIAGIFNWAVAIPPDVLKSRFQTAPPGKYPNGFRDVLRELIRDEGVTSLYKGFNAVMIRAFPANAACFLGFEVAMKFLNWATPNL [SLC25A20]
Data returned: 58

---

System: HeLa Kyoto
measurement.description: solubility in G1/S (NP-40 vs SDS abundance) (log2 ratio); higher = more soluble
conditions: cell cycle stage: G1/S
measurement.kind: solubility in G1/S (log2)
Answer field: number only, no words.

seq_text="MSMILSASVIRVRDGLPLSASTDYEQSTGMQECRKYFKMLSRKLAQLPDRCTLKTGHYNINFISSLGVSYMMLCTENYPNVLAFSFLDELQKEFITTYNMMKTNTAVRPYCFIEFDNFIQRTKQRYNNPRSLSTKINLSDMQTEIKLRPPYQISMCELGSANGVTSAFSVDCKGAGKISSAHQRLEPATLSGIVGFILSLLCGALNLIRGFHAIESLLQSDGDDFNYIIAFFLGTAACLYQCYLLVYYTGWRNVKSFLTFGLICLCNMYLYELRNLWQLFFHVTVGAFVTLQIWLRQAQGKAPDYDV [SEC22A]" test_value=-0.17

Now for another entry.
Data request: // fetch HeLa Kyoto solubility in G1/S (log2) for MVDYSVWDHIEVSDDEDETHPNIDTASLFRWRHQARVERMEQFQKEKEELDRGCRECKRKVAECQRKLKELEVAEGGKAELERLQAEAQQLRKEERSWEQKLEEMRKKEKSMPWNVDTLSKDGFSKSMVNTKPEKTEEDSEEVREQKHKTFVEKYEKQIKHFGMLRRWDDSQKYLSDNVHLVCEETANYLVIWCIDLEVEEKCALMEQVAHQTIVMQFILELAKSLKVDPRACFRQFFTKIKTADRQYMEGFNDELEAFKERVRGRAKLRIEKAMKEYEEEERKKRLGPGGLDPVEVYESLPEELQKCFDVKDVQMLQDAISKMDPTDAKYHMQRCIDSGLWVPNSKASEAKEGEEAGPGDPLLEAVPKTGDEKDVSV [CDC37]
Data returned: 0.24

---

Test system: HeLa Kyoto
measurement.description: melting temperature (median over replicates), in situ; higher = more thermally stable
conditions: cell cycle stage: G1/S
measurement.kind: melting temperature (°C)
Just the number in °C, nothing appended.

Below are worked cases with known answers.
seq_text="MVELMFPLLLLLLPFLLYMAAPQIRKMLSSGVCTSTVQLPGKVVVVTGANTGIGKETAKELAQRGARVYLACRDVEKGELVAKEIQTTTGNQQVLVRKLDLSDTKSIRAFAKGFLAEEKHLHVLINNAGVMMCPYSKTADGFEMHIGVNHLGHFLLTHLLLEKLKESAPSRIVNVSSLAHHLGRIHFHNLQGEKFYNAGLAYCHSKLANILFTQELARRLKGSGVTTYSVHPGTVQSELVRHSSFMRWMWWLFSFFIKTPQQGAQTSLHCALTEGLEILSGNHFSDCHVAWVSAQARNETIARRLWDVSCDLLGLPID [RDH11]" measurement_kind="melting temperature" value_unit=°C test_value=49.5
seq_text="MSGEPGQTSVAPPPEEVEPGSGVRIVVEYCEPCGFEATYLELASAVKEQYPGIEIESRLGGTGAFEIEINGQLVFSKLENGGFPYEKDLIEAIRRASNGETLEKITNSRPPCVIL [MIEN1]" measurement_kind="melting temperature" value_unit=°C test_value=50.8
seq_text="MAAAAGRSLLLLLSSRGGGGGGAGGCGALTAGCFPGLGVSRHRQQQHHRTVHQRIASWQNLGAVYCSTVVPSDDVTVVYQNGLPVISVRLPSRRERCQFTLKPISDSVGVFLRQLQEEDRGIDRVAIYSPDGVRVAASTGIDLLLLDDFKLVINDLTYHVRPPKRDLLSHENAATLNDVKTLVQQLYTTLCIEQHQLNKERELIERLEDLKEQLAPLEKVRIEISRKAEKRTTLVLWGGLAYMATQFGILARLTWWEYSWDIMEPVTYFITYGSAMAMYAYFVMTRQEYVYPEARDRQYLLFFHKGAKKSRFDLEKYNQLKDAIAQAEMDLKRLRDPLQVHLPLRQIGEKD [MCU]" measurement_kind="melting temperature" value_unit=°C test_value=53
seq_text="MDDLCEANGTFAISLFKILGEEDNSRNVFFSPMSISSALAMVFMGAKGSTAAQMSQALCLYKDGDIHRGFQSLLSEVNRTGTQYLLRTANRLFGEKTCDFLPDFKEYCQKFYQAELEELSFAEDTEECRKHINDWVAEKTEGKISEVLDAGTVDPLTKLVLVNAIYFKGKWNEQFDRKYTRGMLFKTNEEKKTVQMMFKEAKFKMGYADEVHTQVLELPYVEEELSMVILLPDDNTDLAVVEKALTYEKFKAWTNSEKLTKSKVQVFLPRLKLEESYDLEPFLRRLGMIDAFDEAKADFSGMSTEKNVPLSKVAHKCFVEVNEEGTEAAAATAVVRNSRCSRMEPRFCADHPFLFFIRHHKTNCILFCGRFSSP [SERPINB8]" measurement_kind="melting temperature" value_unit=°C test_value=54.6
seq_text="MAPKFPDSVEELRAAGNESFRNGQYAEASALYGRALRVLQAQGSSDPEEESVLYSNRAACHLKDGNCRDCIKDCTSALALVPFSIKPLLRRASAYEALEKYPMAYVDYKTVLQIDDNVTSAVEGINRMTRALMDSLGPEWRLKLPSIPLVPVSAQKRWNSLPSENHKEMAKSKSKETTATKNRVPSAGDVEKARVLKEEGNELVKKGNHKKAIEKYSESLLCSNLESATYSNRALCYLVLKQYTEAVKDCTEALKLDGKNVKAFYRRAQAHKALKDYKSSFADISNLLQIEPRNGPAQKLRQEVKQNLH [TOMM34]" measurement_kind="melting temperature" value_unit=°C test_value=47.4

Data request: Return reported melting temperature; argument: MEDTPLVISKQKTEVVCGVPTQVVCTAFSSHILVVVTQFGKMGTLVSLEPSSVASDVSKPVLTTKVLLGQDEPLIHVFAKNLVAFVSQEAGNRAVLLAVAVKDKSMEGLKALREVIRVCQVW [PSMG3]
Data returned: 57.8

---

System: HeLa Kyoto
measurement.description: thermal stability score vs G1/S (z-score of summed log2 fold changes over temperatures); higher = more thermally stable than in G1/S
conditions: cell cycle stage: early G1 (4.5 h after nocodazole release)
measurement.kind: thermal stability score

seq_text="MFCVTPPELETKMNITKGGLVLFSANSNSSCMELSKKIAERLGVEMGKVQVYQEPNRETRVQIQESVRGKDVFIIQTVSKDVNTTIMELLIMVYACKTSCAKSIIGVIPYFPYSKQCKMRKRGSIVSKLLASMMCKAGLTHLITMDLHQKEIQGFFNIPVDNLRASPFLLQYIQEEIPDYRNAVIVAKSPASAKRAQSFAERLRLGIAVIHGEAQDAESDLVDGRHSPPMVRSVAAIHPSLEIPMLIPKEKPPITVVGDVGGRIAIIVDDIIDDVDSFLAAAETLKERGAYKIFVMATHGLLSSDAPRRIEESAIDEVVVTNTIPHEVQKLQCPKIKTVDISMILSEAIRRIHNGESMSYLFRNIGLDD [PRPSAP2]" test_system="HeLa Kyoto" measurement_kind="thermal stability score" test_value=-0.303

Data request: Return reported thermal stability score; argument: MCGDCVEKEYPNRGNTCLENGSFLLNFTGCAVCSKRDFMLITNKSLKEEDGEEIVTYDHLCKNCHHVIARHEYTFSIMDEFQEYTMLCLLCGKAEDTISILPDDPRQMTLLF [CHURC1]
Data returned: -2.8

---

Tested on: HeLa Kyoto
measurement.description: solubility change mitosis vs G1/S (difference of NP-40 vs SDS log2 ratios) (log2 ratio difference); higher = more soluble in mitosis
measurement.kind: solubility change mitosis (log2)
Answer field: number only, no words.

Data request: Return reported solubility change mitosis (log2); argument: MFQASMRSPNMEPFKQQKVEDFYDIGEELGSGQFAIVKKCREKSTGLEYAAKFIKKRQSRASRRGVSREEIEREVSILRQVLHHNVITLHDVYENRTDVVLILELVSGGELFDFLAQKESLSEEEATSFIKQILDGVNYLHTKKIAHFDLKPENIMLLDKNIPIPHIKLIDFGLAHEIEDGVEFKNIFGTPEFVAPEIVNYEPLGLEADMWSIGVITYILLSGASPFLGDTKQETLANITAVSYDFDEEFFSQTSELAKDFIRKLLVKETRKRLTIQEALRHPWITPVDNQQAMVRRESVVNLENFRKQYVRRRWKLSFSIVSLCNHLTRSLMKKVHLRPDEDLRNCESDTEEDIARRKALHPRRRSSTS [DAPK2]
Data returned: -0.115
